# protocol: Inhibition of tPMET complex in human HL60 cells after 30 mins by WST-1/mPMS reduction assay
# Assay type: cell-based
# setup_conditions: HL-60, 0.5 h
pIC50: −log10 of the molar value.
Measured pIC50 values are reported for all entries that follow.
quantity: pIC50

1) COC1=C(OC)C(=O)C(CCCCCCCCCCn2ccnc2)=C(C)C1=O
4.85
2) COC1=C(OC)C(=O)C(CCCCCCCCCCOCc2cccc(S(=O)(=O)O)c2)=C(C)C1=O
4.09
3) COC1=C(OC)C(=O)C(CCCCCCCCCC[N+](Cc2ccccc2)(Cc2ccccc2)Cc2ccccc2)=C(C)C1=O
4.85
4) COC1=C(OC)C(=O)C(CCCCCCCCCCOc2cc(O)cc(O)c2)=C(C)C1=O
5.22
5) COC1=C(OC)C(=O)C(CCCCCCCCCC[N+](C)(Cc2ccccc2)Cc2ccccc2)=C(C)C1=O.[I-]
5.00
6) COC1=C(OC)C(=O)C(CCCCCCCCCC[N+]2(C)CCOCC2)=C(C)C1=O
3.91
7) COC1=C(OC)C(=O)C(CCCCCCCCCCO)=C(C)C1=O
4.11
8) COC1=C(OC)C(=O)C(CCCCCCCCCCN2CCOCC2)=C(C)C1=O
4.48
9) COC1=C(OC)C(=O)C(CCCCCCCCCCn2cc[n+](C)c2)=C(C)C1=O
4.64
10) COC1=C(OC)C(=O)C(CCCCCCCCCCc2c(O)cc(O)cc2O)=C(C)C1=O
4.68
11) COC1=C(OC)C(=O)C(CCCCCCCCCCn2cc[n+](Cc3ccccc3)c2)=C(C)C1=O
5.05

----------
# protocol: Inhibition of tPMET complex in human HL60 cells after 30 mins by WST-1/mPMS reduction assay
# Format: cell-based
# setup_conditions: HL-60, 0.5 h
pIC50: −log10 of the molar value.
quantity: pIC50

1. COC1=C(OC)C(=O)C(CCCO)=C(C)C1=O
< 3.70
2. COC1=C(OC)C(=O)C(CCCOCc2cccc(S(=O)(=O)O)c2)=C(C)C1=O
< 3.70
3. COC1=C(OC)C(=O)C(CCCCCO)=C(C)C1=O
< 3.70
4. COC1=C(OC)C(=O)C(CCCCCCCCCCN(Cc2ccccc2)Cc2ccccc2)=C(C)C1=O
< 3.70
